# Assay details: Membrane Permeability Test, parallel artificial membrane permeability assay (PAMPA)
# Assay type: in vitro ADME
# Conditions used: pH 7.4, pH7.4, 37° C., read-out: Pe (pH7.4)
Endpoint: Papp at 4 h

{"Molecule": "CN[C@H](C(=O)N[C@H](C(=O)N(C)[C@H](/C=C(\\C)C(=O)N[C@@H](CCC(=O)NCCN1C(=O)C=CC1=O)C(=O)O)C(C)C)C(C)(C)C)C(C)(C)c1cn(C)c2ccccc12", "Value": "< 0.1 ×10⁻⁶ cm/s"}
{"Molecule": "CNC(C(=O)N[C@H](C(=O)N(C)[C@H](/C=C(\\C)C(=O)N[C@H](CCC(=O)O)C(=O)O)C(C)C)C(C)(C)C)C(C)(C)c1ccc(OC(=O)CCN2C(=O)C=CC2=O)cc1 (stereo partly drawn)", "Value": "< 0.1 ×10⁻⁶ cm/s"}
{"Molecule": "CN[C@H](C(=O)N[C@H](C(=O)N(C)[C@H](/C=C(\\C)C(=O)N[C@@H](CCC(=O)O)C(=O)NCCN1C(=O)C=CC1=O)C(C)C)C(C)(C)C)C(C)(C)c1cn(C)c2ccccc12", "Value": "< 0.1 ×10⁻⁶ cm/s"}

---

# Assay details: Membrane Permeability Test, parallel artificial membrane permeability assay (PAMPA)
# Assay type: in vitro ADME
# Conditions used: pH 7.4, pH7.4, 37° C., read-out: Pe (pH7.4)
A collection of molecules and their measured Papp at 4 h
Endpoint: Papp at 4 h

{"Smiles code": "CN[C@H](C(=O)N[C@H](C(=O)N(C)[C@H](/C=C(\\C)C(=O)N[C@H](CCC(=O)NCCN1C(=O)C=CC1=O)C(=O)O)C(C)C)C(C)(C)C)C(C)(C)c1cn(C)c2ccccc12", "Endpoint": "Papp at 4 h", "Value": "< 0.1 ×10⁻⁶ cm/s"}
{"Smiles code": "CN[C@H](C(=O)N[C@H](C(=O)N(C)[C@H](/C=C(\\C)C(=O)N[C@H](CCC(=O)N[C@@H](CCCCNC(=O)CCCCCN1C(=O)C=CC1=O)C(=O)O)C(=O)O)C(C)C)C(C)(C)C)C(C)(C)c1cn(C)c2ccccc12", "Endpoint": "Papp at 4 h", "Value": "< 0.1 ×10⁻⁶ cm/s"}
{"Smiles code": "CN[C@H](C(=O)N[C@H](C(=O)N(C)[C@H](/C=C(\\C)C(=O)N[C@H](CCC(=O)NCCN1C(=O)C=CC1=O)C(=O)O)C(C)C)C(C)(C)C)C(C)(C)c1cccc(OC)c1", "Endpoint": "Papp at 4 h", "Value": "< 0.1 ×10⁻⁶ cm/s"}
{"Smiles code": "C/C(=C\\[C@H](C(C)C)N(C)C(=O)[C@@H](NC(=O)[C@@H](NC(=O)CCCCCN1C(=O)C=CC1=O)C(C)(C)c1cn(C)c2ccccc12)C(C)(C)C)C(=O)N[C@H](CCC(=O)O)C(=O)O", "Endpoint": "Papp at 4 h", "Value": "0.3 ×10⁻⁶ cm/s"}
{"Smiles code": "C/C(=C\\[C@H](C(C)C)N(C)C(=O)[C@@H](NC(=O)[C@H]1CCCCN1C(=O)CCN1C(=O)C=CC1=O)C(C)(C)C)C(=O)N[C@H](CCC(=O)O)C(=O)O", "Endpoint": "Papp at 4 h", "Value": "< 0.1 ×10⁻⁶ cm/s"}
{"Smiles code": "CN[C@H](C(=O)N[C@H](C(=O)N(C)[C@H](/C=C(\\C)C(=O)N[C@H](CCC(=O)NCCN1C(=O)C=CC1=O)C(=O)O)C(C)C)C(C)(C)C)C(C)(C)c1cccc(-c2ccccc2)c1", "Endpoint": "Papp at 4 h", "Value": "0.8 ×10⁻⁶ cm/s"}
{"Smiles code": "CN[C@H](C(=O)N[C@H](C(=O)N(C)[C@H](/C=C(\\C)C(=O)N[C@H](CCC(=O)NCCCN1C(=O)C=CC1=O)C(=O)O)C(C)C)C(C)(C)C)C(C)(C)c1cn(C)c2ccccc12", "Endpoint": "Papp at 4 h", "Value": "< 0.1 ×10⁻⁶ cm/s"}
{"Smiles code": "CN[C@H](C(=O)N[C@H](C(=O)N(C)[C@H](/C=C(\\C)C(=O)N[C@H](CCC(=O)NCCN1C(=O)C=CC1=O)C(=O)O)C(C)C)C(C)(C)C)C(C)(C)c1cccs1", "Endpoint": "Papp at 4 h", "Value": "< 0.1 ×10⁻⁶ cm/s"}
{"Smiles code": "CN[C@H](C(=O)N[C@H](C(=O)N(C)[C@H](/C=C(\\C)C(=O)N[C@@H](CCC(=O)O)C(=O)NCCN1C(=O)C=CC1=O)C(C)C)C(C)(C)C)C(C)(C)c1ccccc1", "Endpoint": "Papp at 4 h", "Value": "< 0.1 ×10⁻⁶ cm/s"}
{"Smiles code": "CN[C@H](C(=O)N[C@H](C(=O)N(C)[C@H](/C=C(\\C)C(=O)N[C@H](CCC(=O)NCCN1C(=O)C=CC1=O)C(=O)O)C(C)C)C(C)(C)C)C(C)(C)c1cccc(Br)c1", "Endpoint": "Papp at 4 h", "Value": "6.8 ×10⁻⁶ cm/s"}
